Test system: Saccharomyces cerevisiae
Assay: Saccharomyces cerevisiae toxicity assay
Assay type: cell-based
Conditions: 3 h incubation, colony count vs DMSO only control; highest concentration tested 11 µg/µL
Below is a list of entries, each paired with its recorded Cyto-Toxicity (50% Cell Death) value.
Report the figure in µg/µL without appending any unit label.

INSERT INTO assay_data (compound, system_name, measured_endpoint, value_measured) VALUES
  ('C=C(c1ccc(C(=O)O)cc1)c1ccc2c(c1)C(C)(C)CCC2(C)C [Compound 27, reference compound]', 'Saccharomyces cerevisiae', 'Cyto-Toxicity (50% Cell Death)', 0.5);

Exercise: So what Cyto-Toxicity (50% Cell Death) did C=C(c1ccc(C(=O)O)c(O)c1)c1cc2c(cc1C)C(C)(C)CCC2(C)C [Compound 37a] get with Saccharomyces cerevisiae?
Key: 1

Exercise: Moving on to C=C(c1ccc(C(=O)O)c(F)c1)c1ccc2c(c1)C(C)(C)CCC2(C)C
Key: 0.08

Exercise: Repeat for the following compound: CCN(c1ccc(C(=O)O)cc1)c1ccc(OCC(C)C)c(C(C)C)c1
Key: 0.08

Exercise: Similarly, CCN(c1ccc(C(=O)O)c(F)c1)c1ccc(OCC(C)C)c(C(C)C)c1 ?
Key: 1

Exercise: Here is the next compound: C=C(c1ccc(C(=O)O)c(O)c1)c1ccc2c(c1)C(C)(C)CCC2(C)C [Compound 37b]
Key: 0.5

Exercise: Next record, please: C=C(c1ccc(C(=O)O)cc1)c1cc2c(cc1C)C(C)(C)CCC2(C)C [Compound 1, reference compound]
Key: 0.5

---

Target: RXRα (Homo sapiens, UniProt P19793)
Construct: expressed in transfected cells; host or cells: UAS-GFP x KMT2A-MLLT3 cells (retroviral transduction)
Sequence (P19793 227-458 limits assumed): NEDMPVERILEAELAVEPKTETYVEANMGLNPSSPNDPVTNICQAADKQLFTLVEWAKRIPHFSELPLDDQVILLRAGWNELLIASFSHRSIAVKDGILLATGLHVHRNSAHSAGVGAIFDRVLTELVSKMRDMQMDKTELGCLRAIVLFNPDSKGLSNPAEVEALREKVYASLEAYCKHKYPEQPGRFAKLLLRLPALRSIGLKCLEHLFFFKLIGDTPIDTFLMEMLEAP
Experiment: UAS/Gal4 GFP reporter assay of RXRα activation in UAS-GFP x KMT2A-MLLT3 cells
Type: cell-based
Conditions: RXRα activation; value (SD); Table 1 does not say whether GFP or Luc assay; read-out: EC50 (nM) +/−(SD)
measured_endpoint: EC50

Completed entries (count: 4):
INSERT INTO assay_data (compound, system_name, value_measured) VALUES
  ('CCN(c1ccc(OCC(C)C)c(C(C)C)c1)c1ncc(C(=O)O)cn1', 'RXRα (Homo sapiens, UniProt P19793)', '297 nM'),
  ('C=C(c1ccc(C(=O)O)cc1)c1cc2c(cc1C)C(C)(C)CC2(C)C [Compound 26, reference compound]', 'RXRα (Homo sapiens, UniProt P19793)', '70.1 nM'),
  ('CCN(c1ccc(C(=O)O)cc1)c1ccc(OCC(C)C)c(C(C)C)c1', 'RXRα (Homo sapiens, UniProt P19793)', '397 nM'),
  ('C=C(c1ccc(C(=O)O)c(O)c1)c1cc2c(cc1C)C(C)(C)CCC2(C)C [Compound 37a]', 'RXRα (Homo sapiens, UniProt P19793)', '24.2 nM');

Now for another entry.
Exercise: # value lookup — system RXRα (Homo sapiens, UniProt P19793), readout EC50, item CCN(c1ccc(C(=O)O)c(F)c1)c1ccc(OCC(C)C)c(C(C)C)c1
Key: > 1000 nM

---

Tested on: Saccharomyces cerevisiae
Test: Saccharomyces cerevisiae toxicity assay
Type: cell-based
Settings: 3 h incubation, colony count vs DMSO only control; highest concentration tested 11 µg/µL
measured_endpoint: Cyto-Toxicity (50% Cell Death)

INSERT INTO assay_data (compound, measured_endpoint, value_measured) VALUES
  ('Cc1cc2c(cc1C1(c3ncc(C(=O)O)cn3)CC1)C(C)(C)CC2(C)C', 'Cyto-Toxicity (50% Cell Death)', 'none'),
  ('CCN(c1ccc(OCC(C)C)c(C(C)C)c1)c1ccc(C(=O)O)cn1 [Compound 25, reference compound]', 'Cyto-Toxicity (50% Cell Death)', 'none'),
  ('CC1(C)CCC(C)(C)c2cc(C3(c4ncc(C(=O)O)cn4)CC3)ccc21', 'Cyto-Toxicity (50% Cell Death)', 'none');
